molecular target: T1, HLA-B*44:05 (human); test: UV peptide exchange, anti-b2m ELISA
T1 construct: also called peptide-receptive MHC class I molecule
peptide exchange yield values for the binders below.

# binder, peptide exchange yield
rows = [
    ("RESHLTEIRQY", "20 to 50%"),
    ("EAYDIELNKW", "50 to 75%"),
    ("SEADWLRFW", "> 75%"),
    ("AENPLNIFY", "> 75%"),
    ("EEIEAHIAL", "50 to 75%"),
    ("GEKATMQNL", "20 to 50%"),
    ("EEMLENVSL", "50 to 75%"),
]

Okay, now this binder:
Ask: State its peptide exchange yield for this binder: VENIFHNF
Result: 20 to 50%
